The measured values listed here are drawn from patent US20220370416A1.

target: HiBit-KRAS^G12C (Homo sapiens, UniProt P01116, G12C); assay: HiBit degradation assay in MiaPaCa-2 HiBit-KRas^G12C cells; format: cell-based; conditions: read-out: KRas^G12C-HiBiT (MiaPaCa; 0.5% DMSO) IC50; MiaPaCa-2 HiBit-KRas^G12C cells; 0.5% DMSO; 24 hours
Sequence (P01116 1-186 isoform P01116-2 G12C limits assumed): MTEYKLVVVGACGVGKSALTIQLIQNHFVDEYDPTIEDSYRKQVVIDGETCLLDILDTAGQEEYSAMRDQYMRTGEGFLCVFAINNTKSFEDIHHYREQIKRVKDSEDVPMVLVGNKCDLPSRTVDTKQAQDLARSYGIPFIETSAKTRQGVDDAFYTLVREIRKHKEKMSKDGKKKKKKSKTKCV
observationType: DC50

Example cases with answers are listed next.
C=CC(=O)N1CCN(c2nc(O[C@H](C)CN3CCC(OCCOCC(=O)N[C@H](C(=O)N4C[C@H](O)C[C@H]4C(=O)N[C@@H](C)c4ccc(-c5scnc5C)cc4)C(C)(C)C)CC3)nc3c(F)c(-c4cc(O)cc5ccccc45)c(Cl)cc23)[C@@H](C)C1 [Compound 39]
> 1000 nM
C=CC(=O)N1CCN(c2nc(OCCN3CCC4(CC3)CN(c3cc([C@@H](C(=O)N5C[C@H](O)C[C@H]5C(=O)N[C@@H](C)c5ccc(-c6ccnn6C)cc5)C(C)C)on3)C4)nc3c(F)c(-c4cc(O)cc5ccccc45)c(Cl)cc23)C[C@@H]1CC#N (atropisomer, axis not shown) [Compound 101]
> 1000 nM
C=CC(=O)N1CCN(c2nc(OCCN3CCC(COc4cc([C@@H](C(=O)N5C[C@@H](O)C[C@H]5C(=O)N[C@@H](C)c5ccc(-c6scnc6C)cc5)C(C)C)on4)CC3)nc3c(F)c(-c4cc(O)cc5ccccc45)c(Cl)cc23)C[C@@H]1CC#N (atropisomer, axis not shown) [Compound 105]
< 100 nM

Data request: Tell me the measured DC50 of C=CC(=O)N1CCN(c2nc(OCCN3CCC(COC4(C(=O)N[C@H](C(=O)N5C[C@H](O)C[C@H]5C(=O)N[C@@H](C)c5ccc(-c6scnc6C)cc5)C(C)(C)C)CC4)CC3)nc3c(F)c(-c4cc(O)cc5ccccc45)c(Cl)cc23)C[C@@H]1CC#N [Compound 96] , please.
Data returned: 100 to 1000 nM

Data request: Tell me the measured DC50 of C=CC(=O)N1CCN(c2nc(OCCN3CCC(COc4cc([C@@H](C(=O)N5C[C@H](O)C[C@H]5C(=O)N[C@@H](C)c5ccc(-c6scnc6C)cc5)C(C)C)on4)CC3)nc3c(F)c(-c4cc(O)cc5ccccc45)c(Cl)cc23)C[C@@H]1CC#N [Compound 172] , please.
Data returned: > 1000 nM

Data request: Tell me the measured DC50 of C=C(F)C(=O)N1CCN(c2nc(OCCN3CCC(C)(COc4cc([C@H](C(=O)N5C[C@H](O)C[C@H]5C(=O)N[C@@H](C)c5ccc(-c6ccnn6C)cc5)C(C)C)on4)CC3)nc3c(F)c(-c4cc(O)cc5ccccc45)c(Cl)cc23)C[C@@H]1CC#N (atropisomer, axis not shown) [Compound 124] , please.
Data returned: < 100 nM

Data request: Tell me the measured DC50 of C=C(F)C(=O)N1CCN(c2nc(OCCN3CCC(F)(COc4cc([C@@H](C(=O)N5C[C@H](O)C[C@H]5C(=O)N[C@@H](C)c5ccc(-c6scnc6C)cc5)C(C)C)on4)CC3)nc3c(F)c(-c4cc(O)cc5ccccc45)c(Cl)cc23)C[C@@H]1CC#N (atropisomer, axis not shown) [Compound 122] , please.
Data returned: > 1000 nM
